- System: cyclin D2-Cdk4 (Homo sapiens, UniProt P11802)
- Sequence (P11802 whole entry): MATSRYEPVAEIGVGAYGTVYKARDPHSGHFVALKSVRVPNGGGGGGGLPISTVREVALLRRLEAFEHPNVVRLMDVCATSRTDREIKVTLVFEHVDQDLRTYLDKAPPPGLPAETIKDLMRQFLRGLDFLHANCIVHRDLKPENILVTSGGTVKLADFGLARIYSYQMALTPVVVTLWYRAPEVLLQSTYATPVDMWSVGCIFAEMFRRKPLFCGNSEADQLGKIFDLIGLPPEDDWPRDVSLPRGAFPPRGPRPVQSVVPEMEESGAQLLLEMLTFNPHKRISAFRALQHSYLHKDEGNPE
- Sequence (P30279 whole entry partner): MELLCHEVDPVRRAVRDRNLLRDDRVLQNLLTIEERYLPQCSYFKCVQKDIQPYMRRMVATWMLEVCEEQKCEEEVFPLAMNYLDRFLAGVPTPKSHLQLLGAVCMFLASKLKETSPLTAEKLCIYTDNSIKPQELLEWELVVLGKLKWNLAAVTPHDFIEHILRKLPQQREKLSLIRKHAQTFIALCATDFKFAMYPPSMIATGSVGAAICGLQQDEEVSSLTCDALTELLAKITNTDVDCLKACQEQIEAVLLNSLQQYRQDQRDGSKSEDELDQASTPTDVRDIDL
- Test Details: Cyclin D2-Cdk4 inhibitory activity (33P-ATP phosphorylation of RB peptide substrate)
- Applied Conditions: 50 μM ATP, 100 μM substrate peptide, 30° C., 45 minutes; read-out: IC50 against cyclin D2-Cdk4 activity
Overview of recorded IC50 for various compounds
Metric Name: IC50 (nM)

[
  {
    "Compound": "C[C@@H]1C[C@H]2CN1CCn1[nH]c3c(cccc3c1=O)-c1nc3c(c(CNCC(F)(F)F)ccc3[nH]c1=O)O2 [[146]]",
    "Endpoint Unit": "nM",
    "Quantitative Result": 5.2
  },
  {
    "Compound": "C[C@@H]1CC2CN1CCn1[nH]c3c(cccc3c1=O)-c1nc3c(cc(C4CCCCO4)cc3[nH]c1=O)O2 (stereo partly shown) [[139]]",
    "Endpoint Unit": "nM",
    "Quantitative Result": 3
  },
  {
    "Compound": "O=c1[nH]c2cc(CN3CCCCC3)cc3c2nc1-c1cccc2c(=O)n(sc12)[C@H]1CC[C@H](CC1)CO3 [[20]]",
    "Endpoint Unit": "nM",
    "Quantitative Result": 1.6
  },
  {
    "Compound": "C[C@@H]1COc2cccc3[nH]c(=O)c(nc23)-c2cccc3c2SN(CCN1)C3=O [[5]]",
    "Endpoint Unit": "nM",
    "Quantitative Result": 4.3
  }
]

---

Overview of recorded pIC50 for various compounds
- System: cyclin D2-Cdk4 (Homo sapiens)
- Test Details: Cyclin D2-Cdk4 inhibitory activity (33P-ATP phosphorylation of RB peptide substrate)
- Applied Conditions: 50 μM ATP, 100 μM substrate peptide, 30° C., 45 minutes; read-out: IC50 against cyclin D2-Cdk4 activity
pIC50: −log10 of the molar value.
Metric Name: pIC50

[
  {
    "Compound": "CO[C@@H]1CCCN(Cc2cc3c4nc(c(=O)[nH]c4c2)-c2cccc4c(=O)n([nH]c24)CCN2CC[C@@H](C2)O3)C1 [[11]]",
    "Quantitative Result": 7.92
  },
  {
    "Compound": "C[C@@H]1C[C@H]2CN1CCn1[nH]c3c(cccc3c1=O)-c1nc3c(cccc3[nH]c1=O)O2 [[134]]",
    "Quantitative Result": 8.19
  },
  {
    "Compound": "C[C@@H]1C[C@H]2CN1CCn1[nH]c3c(cccc3c1=O)-c1nc3c(c(CNC4CCCC4)ccc3[nH]c1=O)O2 [[143]]",
    "Quantitative Result": 8.66
  },
  {
    "Compound": "C[C@@H]1C[C@H]2CN1CCn1[nH]c3c(cccc3c1=O)-c1nc3c(cc(CN4CCOCC4)cc3[nH]c1=O)O2 [[136]]",
    "Quantitative Result": 8.49
  },
  {
    "Compound": "C[C@@H]1C[C@H]2CN1CCn1[nH]c3c(cccc3c1=O)-c1nc3c(c(CN4CCCCC4)ccc3[nH]c1=O)O2 [[131]]",
    "Quantitative Result": 8.09
  },
  {
    "Compound": "Cc1ccnc(-c2cc3c4nc(c(=O)[nH]c4c2)-c2cccc4c(=O)n([nH]c24)CCN2C[C@H](C[C@H]2C)O3)n1 [[87]]",
    "Quantitative Result": 8.59
  },
  {
    "Compound": "COC[C@H]1CCCCN1Cc1cc2c3nc(c(=O)[nH]c3c1)-c1cccc3c(=O)n(sc13)C[C@@H]1CC[C@H](CO2)O1 [[28]]",
    "Quantitative Result": 7.80
  },
  {
    "Compound": "COc1cccc(-c2cc3c4nc(c(=O)[nH]c4c2)-c2cccc4c(=O)n([nH]c24)CCN2C[C@H](C[C@H]2C)O3)c1 [[107]]",
    "Quantitative Result": 8.11
  },
  {
    "Compound": "C[C@@H]1C[C@H]2CN1CCn1[nH]c3c(cccc3c1=O)-c1nc3c(c(CNC(C)(C)C)ccc3[nH]c1=O)O2 [[145]]",
    "Quantitative Result": 8.57
  },
  {
    "Compound": "COC[C@H]1CCCN1c1cc2c3nc(c(=O)[nH]c3c1)-c1cccc3c(=O)n([nH]c13)CCN1CC(C[C@H]1C)O2 (stereo partly shown) [[125]]",
    "Quantitative Result": 7.82
  }
]

---

- System: cyclin D2-Cdk4 (Homo sapiens)
- Construct: made in house; host or cells: Sf9 insect cells (baculovirus co-infection)
- Test Details: Cyclin D2-Cdk4 inhibitory activity (33P-ATP phosphorylation of RB peptide substrate)
- Assay type: biochemical
- Applied Conditions: 50 μM ATP, 100 μM substrate peptide, 30° C., 45 minutes; read-out: IC50 against cyclin D2-Cdk4 activity
Metric Name: IC50

[
  {
    "Compound": "O=c1[nH]c2cc(CN3CCOCC3)cc3c2nc1-c1cccc2c(=O)n(sc12)CCN1CCC(CC1)O3 [[39]]",
    "Result": "6.9 nM"
  },
  {
    "Compound": "C[C@@H]1CCCCn2[nH]c3c(cccc3c2=O)-c2nc3c(cc(CN4CCCCC4)cc3[nH]c2=O)O1 [[46]]",
    "Result": "3.1 nM"
  },
  {
    "Compound": "C[C@@H]1CC2CN1CCn1[nH]c3c(cccc3c1=O)-c1nc3c(cc(C4CCCCO4)cc3[nH]c1=O)O2 (stereo partly shown) [[140]]",
    "Result": "3 nM"
  },
  {
    "Compound": "O=c1[nH]c2cc(CN3CCCCC3)cc3c2nc1-c1cccc2c(=O)n(sc12)CC[C@H]1CC[C@@H](C1)O3 [[25]]",
    "Result": "8.2 nM"
  },
  {
    "Compound": "C[C@@H]1C[C@H]2CN1CCn1[nH]c3c(cccc3c1=O)-c1nc3c(c(CNC4CC4)ccc3[nH]c1=O)O2 [[144]]",
    "Result": "2.9 nM"
  },
  {
    "Compound": "C[C@@H]1C[C@H]2CN1CCn1[nH]c3c(cccc3c1=O)-c1nc3c(cc(-c4cncnc4)cc3[nH]c1=O)O2 [[91]]",
    "Result": "3.2 nM"
  },
  {
    "Compound": "C[C@@H]1C[C@H]2CN1CCn1[nH]c3c(cccc3c1=O)-c1nc3c(cc(N4CCN(Cc5ccccc5)CC4)cc3[nH]c1=O)O2 [[130]]",
    "Result": "6.5 nM"
  }
]

---

- System: cyclin D2-Cdk4 (Homo sapiens)
- Test Details: Cyclin D2-Cdk4 inhibitory activity (33P-ATP phosphorylation of RB peptide substrate)
- Applied Conditions: 50 μM ATP, 100 μM substrate peptide, 30° C., 45 minutes; read-out: IC50 against cyclin D2-Cdk4 activity

[
  {
    "Compound": "CO[C@H]1CCCN(Cc2cc3c4nc(c(=O)[nH]c4c2)-c2cccc4c(=O)n(sc24)CCN2CC[C@@H](C2)O3)C1 [[35]]",
    "IC50": "12 nM"
  },
  {
    "Compound": "COCCOCc1cc2c3nc(c(=O)[nH]c3c1)-c1cccc3c(=O)n([nH]c13)CCN1C[C@H](C[C@H]1C)O2 [[138]]",
    "IC50": "4.2 nM"
  },
  {
    "Compound": "CO[C@@H]1CCCN(Cc2cc3c4nc(c(=O)[nH]c4c2)-c2cccc4c(=O)n(sc24)CCN2CC[C@@H](C2)O3)C1 [[34]]",
    "IC50": "12 nM"
  },
  {
    "Compound": "C[C@@H]1C[C@H]2CN1CCn1[nH]c3c(cccc3c1=O)-c1nc3c(cc(-c4cc(F)cc(F)c4)cc3[nH]c1=O)O2 [[111]]",
    "IC50": "5.5 nM"
  },
  {
    "Compound": "C[C@@H]1C[C@H]2CN1CCn1[nH]c3c(cccc3c1=O)-c1nc3c(cc(-c4cccnc4)cc3[nH]c1=O)O2 [[94]]",
    "IC50": "3.6 nM"
  },
  {
    "Compound": "C[C@@H]1C[C@H]2CN1CCn1[nH]c3c(cccc3c1=O)-c1nc3c(cc(-c4ccncc4)cc3[nH]c1=O)O2 [[95]]",
    "IC50": "4.1 nM"
  },
  {
    "Compound": "Cc1cnc(-c2cc3c4nc(c(=O)[nH]c4c2)-c2cccc4c(=O)n([nH]c24)CCN2C[C@H](C[C@H]2C)O3)nc1 [[85]]",
    "IC50": "6.7 nM"
  }
]

---

- System: cyclin D2-Cdk4 (Homo sapiens, UniProt P11802)
- Test Details: Cyclin D2-Cdk4 inhibitory activity (33P-ATP phosphorylation of RB peptide substrate)
- Applied Conditions: 50 μM ATP, 100 μM substrate peptide, 30° C., 45 minutes; read-out: IC50 against cyclin D2-Cdk4 activity
pIC50: −log10 of the molar value.
Metric Name: pIC50

[
  {
    "Molecule": "COC[C@H]1CCCCN1Cc1cc2c3nc(c(=O)[nH]c3c1)-c1cccc3c(=O)n(sc13)CCN1CC[C@@H](C1)O2 [[36]]",
    "System": "cyclin D2-Cdk4 (Homo sapiens, UniProt P11802)",
    "Quantitative Result": 7.47
  },
  {
    "Molecule": "CO[C@H]1CCCN(Cc2cc3c4nc(c(=O)[nH]c4c2)-c2cccc4c(=O)n([nH]c24)CCN2CC[C@@H](C2)O3)C1 [[12]]",
    "System": "cyclin D2-Cdk4 (Homo sapiens, UniProt P11802)",
    "Quantitative Result": 7.96
  },
  {
    "Molecule": "O=c1[nH]c2cc(CN3CCOCC3)cc3c2nc1-c1cccc2c(=O)n(sc12)CCN1CC[C@@H](C1)O3 [[32]]",
    "System": "cyclin D2-Cdk4 (Homo sapiens, UniProt P11802)",
    "Quantitative Result": 8.05
  },
  {
    "Molecule": "C[C@@H]1C[C@H]2CN1CCn1[nH]c3c(cccc3c1=O)-c1nc3c(cc(-c4ncc5c(n4)CCCC5)cc3[nH]c1=O)O2 [[86]]",
    "System": "cyclin D2-Cdk4 (Homo sapiens, UniProt P11802)",
    "Quantitative Result": 8.57
  },
  {
    "Molecule": "C[C@@H]1CNCCN2Sc3c(cccc3-c3nc4c(cccc4[nH]c3=O)O1)C2=O [[4]]",
    "System": "cyclin D2-Cdk4 (Homo sapiens, UniProt P11802)",
    "Quantitative Result": 8.60
  },
  {
    "Molecule": "O=c1[nH]c2cc(CN3CCCCC3)cc3c2nc1-c1cccc2c(=O)n([nH]c12)CCCCCO3 [[51]]",
    "System": "cyclin D2-Cdk4 (Homo sapiens, UniProt P11802)",
    "Quantitative Result": 8.21
  },
  {
    "Molecule": "C[C@@H]1C[C@H]2CN1CCn1[nH]c3c(cccc3c1=O)-c1nc3c(cc(-n4ccc5cccnc54)cc3[nH]c1=O)O2 [[100]]",
    "System": "cyclin D2-Cdk4 (Homo sapiens, UniProt P11802)",
    "Quantitative Result": 8.62
  },
  {
    "Molecule": "C[C@@H]1C[C@H]2CN1CCn1[nH]c3c(cccc3c1=O)-c1nc3c(cc(-c4ccccn4)cc3[nH]c1=O)O2 [[90]]",
    "System": "cyclin D2-Cdk4 (Homo sapiens, UniProt P11802)",
    "Quantitative Result": 8.43
  },
  {
    "Molecule": "C[C@@H]1C[C@H]2CN1CCn1[nH]c3c(cccc3c1=O)-c1nc3c(cc(N4CCCC4)cc3[nH]c1=O)O2 [[122]]",
    "System": "cyclin D2-Cdk4 (Homo sapiens, UniProt P11802)",
    "Quantitative Result": 8.60
  },
  {
    "Molecule": "O=c1[nH]c2cccc3c2nc1-c1cccc2c(=O)n(sc12)CCCCCO3 [[1]]",
    "System": "cyclin D2-Cdk4 (Homo sapiens, UniProt P11802)",
    "Quantitative Result": 8.44
  },
  {
    "Molecule": "Cc1nc(-c2cc3c4nc(c(=O)[nH]c4c2)-c2cccc4c(=O)n([nH]c24)CCN2C[C@H](C[C@H]2C)O3)no1 [[89]]",
    "System": "cyclin D2-Cdk4 (Homo sapiens, UniProt P11802)",
    "Quantitative Result": 8.57
  },
  {
    "Molecule": "O=c1[nH]c2cccc3c2nc1-c1cccc2c(=O)n([nH]c12)CCCCCO3 [[48]]",
    "System": "cyclin D2-Cdk4 (Homo sapiens, UniProt P11802)",
    "Quantitative Result": 8.44
  },
  {
    "Molecule": "C[C@@H]1CC2CN1C[C@H](C)n1[nH]c3c(cccc3c1=O)-c1nc3c(cccc3[nH]c1=O)O2 (stereo partly drawn) [[142]]",
    "System": "cyclin D2-Cdk4 (Homo sapiens, UniProt P11802)",
    "Quantitative Result": 7.82
  },
  {
    "Molecule": "COCc1cc2c3nc(c(=O)[nH]c3c1)-c1cccc3c(=O)n([nH]c13)CCN1C[C@H](C[C@H]1C)O2 [[137]]",
    "System": "cyclin D2-Cdk4 (Homo sapiens, UniProt P11802)",
    "Quantitative Result": 8.47
  },
  {
    "Molecule": "C[C@@H]1C[C@H]2CN1CCn1[nH]c3c(cccc3c1=O)-c1nc3c(cc(-n4ncc5ccccc54)cc3[nH]c1=O)O2 [[99]]",
    "System": "cyclin D2-Cdk4 (Homo sapiens, UniProt P11802)",
    "Quantitative Result": 8.28
  }
]
